Molecular target: T1, human transferrin receptor (recombinant, for surface plasmon resonance) (human, UniProt P02786 89-760)
T1 construct: also called huTfR; human transferrin receptor-biotinylated
T1 sequence (P02786 89-760 limits assumed): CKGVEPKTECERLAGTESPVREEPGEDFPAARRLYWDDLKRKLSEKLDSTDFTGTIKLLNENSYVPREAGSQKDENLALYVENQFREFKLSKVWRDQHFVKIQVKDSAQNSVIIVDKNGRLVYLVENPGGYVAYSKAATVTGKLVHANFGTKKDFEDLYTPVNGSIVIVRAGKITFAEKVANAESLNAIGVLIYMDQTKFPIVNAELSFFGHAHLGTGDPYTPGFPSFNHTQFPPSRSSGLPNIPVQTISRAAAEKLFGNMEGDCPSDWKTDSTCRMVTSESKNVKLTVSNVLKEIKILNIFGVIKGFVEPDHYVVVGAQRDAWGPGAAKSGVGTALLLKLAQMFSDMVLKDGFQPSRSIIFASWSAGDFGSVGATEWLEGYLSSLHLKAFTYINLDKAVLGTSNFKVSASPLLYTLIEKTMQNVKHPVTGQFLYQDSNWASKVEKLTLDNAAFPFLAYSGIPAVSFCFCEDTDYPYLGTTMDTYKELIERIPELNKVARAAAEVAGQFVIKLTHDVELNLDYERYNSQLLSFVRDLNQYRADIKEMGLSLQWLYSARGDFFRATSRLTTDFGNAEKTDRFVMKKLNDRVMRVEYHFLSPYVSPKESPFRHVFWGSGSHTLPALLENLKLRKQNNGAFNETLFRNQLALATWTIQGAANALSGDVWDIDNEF
Test: SPR 25C
reported metric: koff (s⁻¹)
Use s⁻¹ as the unit, but write only the number.

Some binders with known koff results, for comparison:
binder	assay result
2/99 VH12/VL5 (antibody, V domains shown) VH: QVQLQESGPGLVKPSETLSLTCTVSGFSLSSYAMSWIRQPPGKGLEWIGYIWSGGSTDYNPSLKSRVTISVDTSKNQFSLKLSSVTAADTAVYYCARRYGTSYPDYGDANGFDPWGQGTLVTVSS VL: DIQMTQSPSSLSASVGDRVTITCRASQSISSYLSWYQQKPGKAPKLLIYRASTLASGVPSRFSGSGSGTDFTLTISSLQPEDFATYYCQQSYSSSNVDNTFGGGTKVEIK	0.00582
2/99 VH13/VL4 (antibody, V domains shown) VH: QVQLQESGPGLVKPSETLSLTCTVSGFSLSSYAMSWIRQPPGKGLEWIGYIWSGGSTDYNPSLKSRVTISVDTSKNQVSLKLSSVTAADTAVYYCARRYGTSYPDYGDANGFDPWGQGTLVTVSS VL: AYQMTQSPSSLSASVGDRVTITCRASQSISSYLSWYQQKPGKAPKLLIYRASTLASGVPSRFSGSGSGTDFTLTISSLQPEDFATYYCQQSYSSSNVDNTFGGGTKVEIK	0.0013

Continue with the next binder.
Give koff for the following binder: 2/99 VH9/VL6 (antibody, V domains shown) VH: QQLLESGGGLVQPGGSLRLSCAASGFTFSSYAMSWVRQAPGKGLEWVGYIWSGGSTDYADSVKGRFTISRDNSKNTLYLQMNSLRAEDTAVYYCAKRYGTSYPDYGDANGFDPWGQGTLVTVSS VL: AIQLTQSPSSLSASVGDRVTITCRASQSISSYLSWYQQKPGKAPKLLIYRASTLASGVPSRFSGSGSGTDFTLTISSLQPEDFATYYCQQSYSSSNVDNTFGGGTKVEIK 0.00683
